Test protocol: PET hydrolysis, aromatic products released after 48 h (umol product/mg enzyme); higher = more PET depolymerization activity
Experimental conditions: substrate: cryPow; 40 °C; pH 5.5
Metric: PET hydrolysis
Answers are plain numbers.

Example results:
# Seq string, PET hydrolysis
data = [
    ("DEIGQAPTAGNITGNGSFTTTSESISSLVSGFGGGRVYYPTTAGKYPVVAISPGFTATWSSLSWIGPRLSSWGFVVVGIETNSIYDQPASRGSQLLAALNWAVNSSSSAVRARVDGSRRGVAGHSMGGGGTLEALAADTTGLVKAGVPIAPWNSDKTWNNVSEPVMIVGGQSDTVAPVASHSIPFYNTLAGPKGYVELTGASHFFPQSTNATLSRALVAWFKRWLNQDSRFTPYTCGFSGLAVSDFRSNAC [ESM090]", 27),
    ("QYQKGPDPTVAGLERDGTFAIRTTTVSRLSASGFGGGTIYYPTATGSYGVVAVSPGFTAYQSSISWIGSRLASHGFVVITIDTNTTSDQPDSRARQLKAALDKVVSLASSRTNVLYGKVDSSRLAVAGHSMGGGGSLAAARDYPSLKASVPLAPWHTTKSFSTVRVPTLIVGADGDTVASVTSHSIPFYTSIPSSTPKGYLELNNEDHFFPQDSGEYGLVGKYMISWFKRFVDSDTRYSPFLCGAPHQTQIANTLRVSDSRTNCPY [DP038]", 6),
    ("ADNPYQRGPDPTRTSVATERGPFANTSVSVPSGYGFNGGRIYYPTDTSQGTFGAIAISPGYTALFSAELAWMGPWLASHGFVVIGIETNSRNDFDTARGTQLLAALDYLTQQSPVRDRIDPNRLAVSGHSMGGGGALSAAMRRSSLKAVVGIAPYSPSSNLANDRVPTMIFSGQADTVVTPSYAMGLYNSIPAGTKSAYLEVAGGDHGFMVGRSNPVLIRTMLPFLKIFIDNDARYSQFLCPLLDNSGVVTYRSTCPFLPTTPTTPPPTG [ESM065]", 29),
]

Answer for every listed entry: what is its PET hydrolysis? The entries follow.
1. ADNPYQRGPDPTNASIEAATGPFAVGTQPIVGASGFGGGQIYYPTDTSQTYGAVVIVPGFISVWAQLNWLGPRLASQGFVVIGIETSVITDLPDPRGDQALAALDWATTRSPVASRIDRTRLAAAGWSMGGGGLRRAALQRPSLKAIVGMAPWNGERNWSAVTVPTLFFGGSSDAVASPNDHAKPFYNSITRAEKDYIELRNADHFFPTSANTTMAKYFISWLKRWVDNDTRYTQFLCPGPSTGLFAPVSASMNTCPF [DP077]
2. MLTITVATGSASAADNPYQRGPDPTRTSVTAVNGPFANTSVSVPTGYGFNGGRIYYPTDTSQGTFGAIAISPGYTALFSAELAWMGPWLASHGFVVIGIETNSRNDFDTARGTQLLAALDYLTQQSPVRDRVDPNRLAVAGHSMGGGGALSAATRRSSLKAVVGIAPYSPSSNLANDRVPTMIFAGQADTVVTPSYATGLYNSLPTTTESAYLEVAGADHGFMVGRSNPVMVRTMLPFVKMFIDNDARYSQFLCPLLDSSGVVTYRSTCPLLPSTPPTSTPTPTDPPTPTPTPTVPPGSASEIVGTQSSRCIDVPNASRNNGTRVQLYDCNKQTNQA [ESM121]

Result:
24
15

Give me PET hydrolysis for each of these sequences, listed below.
1. AAPAGPAALPARPLAAAPADSPYERGPAPTEASITAERGPFAIEKIDVPAGSGTGFNRGTIYAPTDTSQGTFGAIAVSPGFMSPQSVIDWYGPRLASQGFVVMTLETKSLLDAPAARGDQLLAALDYMTGKSKAKDRIDASRLAVMGHSMGGGGTLEAANKRASLQAAVPLAPWDTNYDWKNVQAPTMIMGADNDTIAPADSMAERYYGTLTAVPEKAYLELRNAGHTTFNAPNTTIAKYAIAWMKRFVDDDARYEQFLCPEPSPSTTIAQYEGTCPTG [TEP067]
2. ADNPYQRGPDPTPALVASVNGPFATASVSVPAGYGFGGGMIYYPTDTSQGTFGGIAISPGYTALFSAELAWMGPWLASHGFVVIGIETNNRNDFDEARGTQLLAALDYLTQQSPVRNRVDPNRLAVAGHSMGGGGALNAAIRRPSLKAAVGLAPFSPSSNLANDRVPTMVFSGQQDTVVTPSYVTGLYNSLPSTTQSAYLEIAGGDHGFPVGRPNQVMIRTMLPFVKIFVDYDTRYSPFLCPLSDTSGVVTYRSTCPLTPPGLPTTPPTTPPTTVPTSPPTGGPTTPPTTPSQPGGACTATYRTVNSWPGGFQGEVTVTAGNSAINGWTVRWTLDSGQAITQVWNGEVSTSGSTVSVRNAPYNGSLPPSGSTTFGFLSSGSPSSPSLTCTSP [DP059]

Result:
1. 12
2. 5.5
